Measured values drawn from patent EP1247803A2 for this set.

Molecular target: PDGF-R (Homo sapiens, UniProt P09619)
Sequence (P09619 33-1106, species assumed): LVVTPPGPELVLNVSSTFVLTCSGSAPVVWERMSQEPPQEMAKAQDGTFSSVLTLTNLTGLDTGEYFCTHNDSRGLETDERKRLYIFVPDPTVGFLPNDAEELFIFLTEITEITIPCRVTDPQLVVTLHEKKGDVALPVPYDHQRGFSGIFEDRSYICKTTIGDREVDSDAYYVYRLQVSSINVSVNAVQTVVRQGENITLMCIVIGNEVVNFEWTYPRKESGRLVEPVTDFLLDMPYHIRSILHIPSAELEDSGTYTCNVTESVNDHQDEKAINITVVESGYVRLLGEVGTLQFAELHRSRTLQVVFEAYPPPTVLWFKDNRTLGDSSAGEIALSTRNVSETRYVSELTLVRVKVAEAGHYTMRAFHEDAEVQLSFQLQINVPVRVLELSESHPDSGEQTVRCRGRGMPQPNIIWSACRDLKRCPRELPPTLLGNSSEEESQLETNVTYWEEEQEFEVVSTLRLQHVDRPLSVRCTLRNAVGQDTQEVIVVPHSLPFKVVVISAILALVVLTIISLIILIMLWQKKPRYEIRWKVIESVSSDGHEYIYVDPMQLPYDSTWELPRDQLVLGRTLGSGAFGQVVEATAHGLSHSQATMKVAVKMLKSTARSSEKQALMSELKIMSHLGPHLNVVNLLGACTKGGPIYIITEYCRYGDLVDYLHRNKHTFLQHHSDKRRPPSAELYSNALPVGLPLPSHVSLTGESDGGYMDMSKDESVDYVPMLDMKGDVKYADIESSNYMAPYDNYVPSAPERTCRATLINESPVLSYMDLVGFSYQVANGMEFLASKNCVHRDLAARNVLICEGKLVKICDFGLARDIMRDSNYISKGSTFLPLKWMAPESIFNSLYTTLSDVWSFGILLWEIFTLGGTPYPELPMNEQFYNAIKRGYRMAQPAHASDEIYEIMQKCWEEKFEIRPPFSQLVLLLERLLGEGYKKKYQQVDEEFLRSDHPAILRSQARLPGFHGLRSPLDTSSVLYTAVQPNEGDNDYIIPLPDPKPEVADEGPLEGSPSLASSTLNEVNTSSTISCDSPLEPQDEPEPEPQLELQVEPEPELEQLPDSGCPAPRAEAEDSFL
Assay: PDGF-R ELISA
Format: cell-based
ASSAY ENDPOINT: PDGF Kinase %Inhibition (%)
Report the value in % with no unit label.

Some entries whose results are on file:
CNS(=O)(=O)c1ccc2c(c1)C(=Cc1ccc(O)c(C)c1)C(=O)N2 :: 6.2
O=C1Nc2ccc(CCCl)cc2C1=Cc1ccc(N2CCOCC2)cc1 :: 8.3
O=C1Nc2ccc(CCCl)cc2C1=Cc1coc2ccccc2c1=O :: -24.1

Identify PDGF Kinase %Inhibition associated with the compound Cc1cc2occ(C=C3C(=O)Nc4ccc(CCCl)cc43)c(=O)c2cc1C
6.5

Identify PDGF Kinase %Inhibition associated with the compound O=C1Nc2ccc(CCCl)cc2C1=Cc1cc(O)ccc1O
10.8

Identify PDGF Kinase %Inhibition associated with the compound O=C1Nc2ccc(S(=O)(=O)Nc3ccc(C(F)(F)F)cc3)cc2C1=Cc1cccc(Br)c1
44.3

Identify PDGF Kinase %Inhibition associated with the compound COc1c(C)cc(C=C2C(=O)Nc3ccc(I)cc32)cc1C
-9.2

Identify PDGF Kinase %Inhibition associated with the compound O=C1Nc2ccccc2C1=C1C(=O)Nc2c(Br)cc(Br)cc21
16.4

Identify PDGF Kinase %Inhibition associated with the compound O=C1Nc2c(Br)cc(Br)cc2C1=Cc1ccc(F)cc1F
19.8

Identify PDGF Kinase %Inhibition associated with the compound O=C1Nc2ccc(CCCl)cc2C1=Cc1c(O)cc(O)cc1O
-3.7

Identify PDGF Kinase %Inhibition associated with the compound Cc1cc(C=C2C(=O)Nc3c(Br)cc(Br)cc32)cc(C)c1O
23.8

Identify PDGF Kinase %Inhibition associated with the compound O=C1Nc2ccc(CCCl)cc2C1=Cc1cccc(Br)c1
-27.8

Identify PDGF Kinase %Inhibition associated with the compound COc1ccc(OC)c(C=C2C(=O)Nc3ccc(I)cc32)c1
-0.4

Identify PDGF Kinase %Inhibition associated with the compound CCc1ccc(C=C2C(=O)Nc3ccc(CCCl)cc32)o1
-15.9

Identify PDGF Kinase %Inhibition associated with the compound COc1ccc(C=C2C(=O)Nc3ccc(CCCl)cc32)c2ccccc12
13.7

Identify PDGF Kinase %Inhibition associated with the compound CCOC(=O)c1[nH]c(C=C2C(=O)Nc3ccc(S(=O)(=O)Nc4ccc(C(F)(F)F)cc4)cc32)c(C(=O)OC)c1C
20.2

Identify PDGF Kinase %Inhibition associated with the compound O=C1Nc2ccc(I)cc2C1=Cc1cc(Cl)cc(Br)c1O
21.0

Identify PDGF Kinase %Inhibition associated with the compound COc1cc(Br)cc(C=C2C(=O)Nc3ccc(CCCl)cc32)c1O
68.7

Identify PDGF Kinase %Inhibition associated with the compound CNS(=O)(=O)c1ccc2c(c1)C(=Cc1ccc(C#N)cc1)C(=O)N2
7.2
